Molecular target: Probable G-protein coupled receptor 27 (Homo sapiens)
Test: Agonist activity at CLuc-tagged human GPR27 expressed in HEK293 cells incubated for 10 mins by beta-arrestin 2 recruitment based firefly luciferase complementation assay
quantity: EC50

Take a look at these entries with their results.
structure_smiles=Cc1cc(Cl)c(Cl)cc1C(=O)Nc1ccc(S(=O)(=O)Nc2ccccc2)cc1 value_observed="263 nM"
structure_smiles=Cc1cc(Cl)c(C(=O)Nc2ccc(S(=O)(=O)Nc3ccccc3)cc2)cc1F value_observed="> 31600 nM"
structure_smiles=COc1cc(Cl)ccc1C(=O)Nc1ccc(S(=O)(=O)Nc2ccccc2)cc1 value_observed="204 nM"
structure_smiles=O=C(Nc1ccc(S(=O)(=O)Nc2ccccc2)cc1)c1ccc(Cl)cc1OC(F)(F)F value_observed="> 31600 nM"

# EC50 lookup, item `Cc1cc(Cl)c(C(=O)Nc2ccc(S(=O)(=O)Nc3ccccc3)cc2)cc1Cl`
363 nM

# EC50 lookup, item `COc1ccc(C(=O)Nc2ccc(S(=O)(=O)Nc3ccccc3)cc2)c(Cl)c1`
> 31600 nM

----------
Target: GPR27-V2 (Homo sapiens, UniProt P30518+Q9NS67)
Sequence (P30518 whole entry, one chain of several): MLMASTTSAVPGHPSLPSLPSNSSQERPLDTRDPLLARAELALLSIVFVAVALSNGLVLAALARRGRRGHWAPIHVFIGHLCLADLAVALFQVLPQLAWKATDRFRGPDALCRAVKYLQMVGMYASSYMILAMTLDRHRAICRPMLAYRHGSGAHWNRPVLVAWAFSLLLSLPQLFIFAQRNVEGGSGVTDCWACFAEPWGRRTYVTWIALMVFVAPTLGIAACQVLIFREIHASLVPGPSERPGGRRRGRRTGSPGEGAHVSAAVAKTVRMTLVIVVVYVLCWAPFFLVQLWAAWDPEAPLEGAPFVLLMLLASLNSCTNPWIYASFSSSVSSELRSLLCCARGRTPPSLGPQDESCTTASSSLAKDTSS
Assay: Agonist activity at CLuc-tagged human GPR27-V2 expressed in HEK293 cells incubated for 10 mins by beta-arrestin 2 recruitment based firefly luciferase complementation assay
EC50 strictly under 4 µM means Met; at 4 µM or over means Not met.

# example entries with known answers
structure_smiles=CC(=O)NS(=O)(=O)c1ccc(NC(=O)c2ccc(Cl)cc2Cl)cc1 class_label="Not met"
structure_smiles=O=C(Nc1ccc(S(=O)(=O)Nc2ccccc2)cc1)c1ccc(C(F)(F)F)cc1Br class_label="Not met"
structure_smiles=COc1cc(Cl)ccc1C(=O)Nc1ccc(S(=O)(=O)Nc2ccccc2)cc1 class_label=Met
structure_smiles=NS(=O)(=O)c1ccc(NC(=O)c2ccc(Br)cc2Br)cc1 class_label="Not met"
structure_smiles=COc1ccc(C(=O)Nc2ccc(S(=O)(=O)Nc3ccccc3)cc2)c(C)c1 class_label="Not met"
structure_smiles=N#Cc1ccc(C(=O)Nc2ccc(S(=O)(=O)Nc3ccccc3)cc2)c(Cl)c1 class_label="Not met"

Lab log: compare recorded EC50 with 4 µM; is it strictly lower for `O=C(Nc1ccc(S(=O)(=O)Nc2ccccc2)cc1)c1ccc(Cl)cc1OC(F)(F)F` ?
Met

Lab log: compare recorded EC50 with 4 µM; is it strictly lower for `Cc1onc(NS(=O)(=O)c2ccc(NC(=O)c3ccc(Cl)cc3Cl)cc2)c1C` ?
Not met

Lab log: compare recorded EC50 with 4 µM; is it strictly lower for `Cc1nnc(NS(=O)(=O)c2ccc(NC(=O)c3ccc(Cl)cc3Cl)cc2)s1` ?
Not met

Lab log: compare recorded EC50 with 4 µM; is it strictly lower for `O=C(Nc1ccc(S(=O)(=O)Nc2ccccc2)cc1)c1ccc(Cl)cc1Cl` ?
Not met

Lab log: compare recorded EC50 with 4 µM; is it strictly lower for `O=C(Nc1ccc(S(=O)(=O)Nc2ccccc2)cc1)c1ccc(Br)cc1Br` ?
Met

----------
Below, each entry is listed with its recorded pEC50.
Target: GPR27-V2 (Homo sapiens, UniProt P30518+Q9NS67)
Experiment: Agonist activity at CLuc-tagged human GPR27-V2 expressed in HEK293 cells incubated for 10 mins by beta-arrestin 2 recruitment based firefly luciferase complementation assay
Remember the convention: pEC50 equals -log10 of concentration in molar.

Take a look at these entries with their results.
structure_smiles=CS(=O)(=O)c1ccc(NC(=O)c2ccc(Cl)cc2Cl)cc1 value_observed=4.42
structure_smiles=COc1ccc(C(=O)Nc2ccc(S(=O)(=O)Nc3ccccc3)cc2)c(Cl)c1 value_observed=5.09
structure_smiles=O=C(Nc1ccc(S(=O)(=O)Nc2ccccc2)cc1)c1ccc(C(F)(F)F)cc1C(F)(F)F value_observed=6.26

Let's switch to this compound now.
Request body: readout pEC50, system GPR27-V2 (Homo sapiens, UniProt P30518+Q9NS67), query `O=C(Nc1ccc(S(=O)(=O)Nc2ccccc2)cc1)c1ccc(C(F)(F)F)cc1Cl` . Return the value.
5.41

----------
Biological target: Probable G-protein coupled receptor 27 (Homo sapiens, UniProt Q9NS67)
Sequence (Q9NS67 whole entry): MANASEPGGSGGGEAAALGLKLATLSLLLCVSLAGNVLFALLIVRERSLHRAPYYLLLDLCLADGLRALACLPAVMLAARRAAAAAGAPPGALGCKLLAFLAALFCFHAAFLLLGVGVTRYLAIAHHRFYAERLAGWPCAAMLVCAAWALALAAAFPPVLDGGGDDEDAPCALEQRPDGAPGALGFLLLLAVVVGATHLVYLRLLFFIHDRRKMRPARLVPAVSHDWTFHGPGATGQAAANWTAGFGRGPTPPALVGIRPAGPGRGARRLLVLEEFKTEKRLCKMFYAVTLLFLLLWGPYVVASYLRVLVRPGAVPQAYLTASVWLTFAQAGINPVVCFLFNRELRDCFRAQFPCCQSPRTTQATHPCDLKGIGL
Experiment: Agonist activity at CLuc-tagged human GPR27 expressed in HEK293 cells incubated for 10 mins by beta-arrestin 2 recruitment based firefly luciferase complementation assay
quantity: pEC50
Remember the convention: pEC50 equals -log10 of concentration in molar.

structure_smiles=O=C(Nc1ccc(S(=O)(=O)Nc2ccccc2)cc1)c1ccc(F)cc1F quantity=pEC50 value_observed=6.35
structure_smiles=O=C(Nc1ccc(S(=O)(=O)Nc2ccccc2)cc1)c1ccc(C(F)(F)F)cc1Br quantity=pEC50 value_observed=6.61
structure_smiles=Cc1cc(C(=O)Nc2ccc(S(=O)(=O)Nc3ccccc3)cc2)c(Cl)cc1Cl quantity=pEC50 value_observed=6.43
structure_smiles=Cc1cc(C(=O)Nc2ccc(S(=O)(=O)Nc3ccccc3)cc2)c(F)cc1Br quantity=pEC50 value_observed=5.67
structure_smiles=Cc1cc(C(=O)Nc2ccc(S(=O)(=O)Nc3ccccc3)cc2)c(C)cc1Br quantity=pEC50 value_observed=6.90

# pEC50 lookup, item `N#Cc1ccc(C(=O)Nc2ccc(S(=O)(=O)Nc3ccccc3)cc2)c(Cl)c1`
6.01

# pEC50 lookup, item `Cc1cc(Br)c(F)cc1C(=O)Nc1ccc(S(=O)(=O)Nc2ccccc2)cc1`
6.25

# pEC50 lookup, item `O=C(Nc1ccc(S(=O)(=O)Nc2ccccc2)cc1)c1ccc(Br)cc1Br`
5.91

# pEC50 lookup, item `O=C(Nc1ccc(S(=O)(=O)Nc2ccccc2)cc1)c1ccc(C(F)(F)F)cc1Cl`
5.17

# pEC50 lookup, item `O=C(Nc1ccc(S(=O)(=O)Nc2ccccc2)cc1)c1cc(F)c(Cl)cc1Cl`
6.42

# pEC50 lookup, item `Cc1cc(C(=O)Nc2ccc(S(=O)(=O)Nc3ccccc3)cc2)c(C)cc1Cl`
6.56

# pEC50 lookup, item `O=C(Nc1ccc(S(=O)(=O)Nc2ccccc2)cc1)c1ccc(Cl)c(Cl)c1Cl`
6.20

# pEC50 lookup, item `O=C(Nc1ccc(S(=O)(=O)Nc2ccccc2)cc1)c1cc(Cl)c(Cl)cc1Cl`
6.23

# pEC50 lookup, item `O=C(Nc1ccc(S(=O)(=O)Nc2ccccc2)cc1)c1cc2ccccc2cc1Cl`
6.02

# pEC50 lookup, item `O=C(Nc1ccc(S(=O)(=O)Nc2ccccc2)cc1)c1ccc(Cl)cc1Cl`
5.18
